Each recorded value in this set is attributed to patent US20190367606A1.

// flow cytometry fluorescence (name not given) lookup, one value per entry
Target: T1, human podocalyxin (human, UniProt O00592 23-558)
T1 construct: also called hPodo; hPodocalyxin
T1 sequence: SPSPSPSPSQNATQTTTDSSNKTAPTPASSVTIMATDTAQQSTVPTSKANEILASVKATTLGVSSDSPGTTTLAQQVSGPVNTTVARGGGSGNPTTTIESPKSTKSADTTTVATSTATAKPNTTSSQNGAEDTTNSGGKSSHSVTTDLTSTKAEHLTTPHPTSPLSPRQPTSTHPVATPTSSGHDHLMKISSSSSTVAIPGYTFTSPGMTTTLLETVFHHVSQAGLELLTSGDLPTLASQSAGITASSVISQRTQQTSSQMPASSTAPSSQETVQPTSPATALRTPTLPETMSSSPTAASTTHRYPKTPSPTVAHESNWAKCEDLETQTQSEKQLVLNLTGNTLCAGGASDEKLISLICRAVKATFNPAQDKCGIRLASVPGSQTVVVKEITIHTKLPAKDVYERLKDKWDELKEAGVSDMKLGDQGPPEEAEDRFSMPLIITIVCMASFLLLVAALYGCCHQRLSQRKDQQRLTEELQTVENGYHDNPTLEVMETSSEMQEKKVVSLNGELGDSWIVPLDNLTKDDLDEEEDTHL
Test: flow cytometry, supernatant 2:15 (so in the source), MDA-MB-231 cells
experimental-endpoint: flow cytometry fluorescence (name not given)

binder	value-measured
Rb VH, Vk 1:1 (Podo 83 rabbit VH, human CH1-CH3, human Ck, and humanized Vk) (antibody, V domains shown, Human CH1-CH3 and human Ck) VH: QSLAESGGRLVTPGTPLTLTCTASGIDLSSYAMGWVRQAPGKGLEYIGFIYASGSIFYASWAKGRFTISKTSSTTVDLKMTSLTTEDTATYFCARAGYYFGGNYDLNLWGQGTLVTVSS VL: DIQMTQSPSSLSASVGDRVTITCQASQSISNYLAWYQQKPGKVPKLLIYRASTLASGVPSRFSGSGSGTDFTLTISSLQPEDVATYYCQQGYVSNNLDNIFGGGTEVVVK	94800
Rabbit Podo 83 (Parental rabbit antibody) (antibody, V domains shown, Rabbit constant regions; also called Rb Podo 83 (Rb Constant Region); rabbit Podo-83 (Ab-1)) VH: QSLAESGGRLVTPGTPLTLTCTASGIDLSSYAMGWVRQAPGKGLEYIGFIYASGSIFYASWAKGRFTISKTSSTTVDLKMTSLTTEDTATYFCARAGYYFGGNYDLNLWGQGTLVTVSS VL: DIVLTQTPASVEVAVGGTVTIKCQASQSISNYLAWYQRKPGQPPRLLIYRASTLASGVSSRFKGSGSGTQFTLTISGVECADAATYYCQQGYVSNNLDNIFGGGTEVVVK	53700
Rb/Hu Podo83 (Podo83 rabbit VH and VL, human IgG1 chimera) (antibody, V domains shown, Rabbit variable domains cloned into human IgG1 and human Ig kappa constant region constructs (pTT5/IgG1, pTT5/Igk); also called anti-PODO; Ab-1) VH: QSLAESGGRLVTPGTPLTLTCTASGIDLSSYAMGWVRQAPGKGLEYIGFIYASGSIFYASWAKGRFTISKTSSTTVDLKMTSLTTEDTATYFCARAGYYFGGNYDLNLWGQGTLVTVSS VL: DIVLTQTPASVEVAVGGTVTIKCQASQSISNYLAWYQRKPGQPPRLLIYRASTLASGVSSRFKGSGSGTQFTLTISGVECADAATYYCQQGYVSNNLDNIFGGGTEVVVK	102000
huPodo 83 1:1 (humanized anti-podocalyxin antibody 83, version 1) (antibody, V domains shown, Cloned into pTT5 plasmids with human IgG heavy chain and human Ig kappa constant regions) VH: EVQLVESGGGLVQPGGSLRLSCAASGIDLSSYAMGWVRQAPGKGLEWVSFIYASGSIFYASWAKGRFTISRDNSKNTLYLQMNSLRAEDTAVYYCARAGYYFGGNYDLNLWGQGTLVTVSS VL: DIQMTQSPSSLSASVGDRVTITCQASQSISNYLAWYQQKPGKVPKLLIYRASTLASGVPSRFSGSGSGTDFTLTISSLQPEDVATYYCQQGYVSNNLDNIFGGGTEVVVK	91500
